Molecular target: EML4-ALK (Homo sapiens, UniProt Q9UM73)
Construct: endogenous in cells; host or cells: H3122 (NSCLC), single-cell clone after CRISPR knock-in of HiBit; the other entry of the earlier key: EML4 (Q9HC35, Echinoderm microtubule-associated protein-like 4)
Sequence (Q9UM73 with tags, fused parts or gaps): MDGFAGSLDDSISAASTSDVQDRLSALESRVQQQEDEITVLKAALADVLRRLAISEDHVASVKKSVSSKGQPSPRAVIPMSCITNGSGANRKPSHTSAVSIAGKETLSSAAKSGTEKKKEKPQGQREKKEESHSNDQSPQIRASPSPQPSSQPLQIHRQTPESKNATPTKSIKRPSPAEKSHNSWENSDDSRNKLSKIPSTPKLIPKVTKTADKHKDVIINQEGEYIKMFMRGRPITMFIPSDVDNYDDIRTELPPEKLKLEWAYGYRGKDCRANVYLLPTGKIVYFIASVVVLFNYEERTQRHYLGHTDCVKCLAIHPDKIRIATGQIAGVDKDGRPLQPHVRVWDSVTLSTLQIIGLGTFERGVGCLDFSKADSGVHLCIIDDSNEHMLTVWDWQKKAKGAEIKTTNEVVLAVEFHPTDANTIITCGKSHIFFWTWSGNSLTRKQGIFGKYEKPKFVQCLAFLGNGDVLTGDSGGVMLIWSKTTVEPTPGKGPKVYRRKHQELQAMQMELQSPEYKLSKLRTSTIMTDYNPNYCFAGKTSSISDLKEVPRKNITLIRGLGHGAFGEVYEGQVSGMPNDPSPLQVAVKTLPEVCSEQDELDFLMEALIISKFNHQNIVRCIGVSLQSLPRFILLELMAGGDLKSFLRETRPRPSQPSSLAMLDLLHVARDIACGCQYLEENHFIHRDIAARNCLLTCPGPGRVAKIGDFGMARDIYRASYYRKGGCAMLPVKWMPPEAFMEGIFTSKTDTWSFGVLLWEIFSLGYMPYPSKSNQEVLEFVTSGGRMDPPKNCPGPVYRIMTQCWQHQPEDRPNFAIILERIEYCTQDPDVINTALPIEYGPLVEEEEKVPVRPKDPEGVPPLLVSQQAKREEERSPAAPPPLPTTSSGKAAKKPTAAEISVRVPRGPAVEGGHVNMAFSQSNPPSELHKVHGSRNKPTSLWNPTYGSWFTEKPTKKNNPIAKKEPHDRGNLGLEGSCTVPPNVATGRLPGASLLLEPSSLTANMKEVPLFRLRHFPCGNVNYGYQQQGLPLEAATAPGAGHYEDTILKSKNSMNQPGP
Test: EML4-ALK HiBit degradation assay in CRISPR-tagged H3122 cells (Nano-Glo HiBit Lytic Detection)
Type: cell-based
Settings: Table 1, second DC50 column; H3122 EML4-ALK-HiBit, 16 hours; read-out: Degradation DC50
recorded-endpoint: DC50 (µM)

CC[C@@H](NC(=O)[C@@H]1C[C@H](NC(=O)CCCCCCCC(=O)N(C)CCc2cc(OC)c(Nc3ncc(Cl)c(Nc4ccccc4S(=O)(=O)C(C)C)n3)cc2C)CN1C(=O)[C@@H](NC(=O)[C@H](C)NC)C(C)(C)C)c1ccccc1 [Compound 56]	0.226
COc1cc(CCN(C)C(=O)CCOCCOCCNc2cccc3c2C(=O)N(C2CCC(=O)NC2=O)C3=O)c(C)cc1Nc1ncc(Cl)c(Nc2ccccc2S(=O)(=O)C(C)C)n1 (stereo not shown) [compound 4]	0.034

P = COc1cc(CCN(C)CCCCCOc2cc(-c3scnc3C)ccc2[C@H](C)NC(=O)[C@@H]2C[C@@H](O)CN2C(=O)[C@@H](NC(C)=O)C(C)(C)C)c(C)cc1Nc1ncc(Cl)c(Nc2ccccc2S(=O)(=O)C(C)C)n1 [Compound 54]
Q = COc1cc(CCNCCCCCSC(C)(C)[C@H](NC(C)=O)C(=O)N2C[C@H](O)C[C@H]2C(=O)N[C@@H](C)c2ccc(-c3scnc3C)cc2)c(C)cc1Nc1ncc(Cl)c(Nc2ccccc2S(=O)(=O)C(C)C)n1 [Compound 48]
R = COc1cc(CCN(C)CCCCCNc2cccc3c2C(=O)N(C2CCC(=O)NC2=O)C3=O)c(C)cc1Nc1ncc(Cl)c(Nc2ccccc2S(=O)(=O)C(C)C)n1 (stereo not shown) [Compound 50]
S = COc1cc(CCN(C)C(=O)CCCCCCCCNC(=O)COc2cccc3c2C(=O)N(C2CCC(=O)NC2=O)C3=O)c(C)cc1Nc1ncc(Cl)c(Nc2ccccc2S(=O)(=O)C(C)C)n1 (stereo not shown) [compound 7]
T = CC[C@@H](NC(=O)C1CC(NC(=O)CCCCCCC(=O)N(C)CCc2cc(OC)c(Nc3ncc(Cl)c(Nc4ccccc4S(=O)(=O)C(C)C)n3)cc2C)CN1C(=O)[C@@H](NC(=O)[C@H](C)NC)C(C)(C)C)c1ccccc1 (stereo partly shown) [Compound 55]
Please rank these molecules by DC50 in descending order. Please respond with the labels ordered as the question requires. Q, T, P, S, R

###

Target: EML4-ALK (Homo sapiens, UniProt Q9UM73)
Construct: endogenous in cells; host or cells: H3122 (NSCLC), single-cell clone after CRISPR knock-in of HiBit; the other entry of the earlier key: EML4 (Q9HC35, Echinoderm microtubule-associated protein-like 4)
Experiment: EML4-ALK HiBit degradation assay in CRISPR-tagged H3122 cells (Nano-Glo HiBit Lytic Detection)
Type: cell-based
Conditions: NCI-H3122, Table 2, second Dmax column; H3122 EML4-ALK-HiBit, 16 hours; read-out: Degradation Dmax
recorded-endpoint: Dmax (%)

CC[C@@H](NC(=O)[C@@H]1C[C@H](NC(=O)CCCCCCC(=O)N(C)CCc2cc(OC)c(Nc3ncc(Cl)c(Nc4ccccc4P(C)(C)=O)n3)cc2C)CN1C(=O)[C@@H](NC(=O)[C@H](C)NC)C(C)(C)C)c1ccccc1	47.2
COc1cc(CCNCCCC(=O)N[C@H](C(=O)N2C[C@H](O)C[C@H]2C(=O)N[C@@H](C)c2ccc(-c3scnc3C)cc2)C(C)(C)C)c(C)cc1Nc1ncc(Cl)c(Nc2ccccc2P(C)(C)=O)n1	37.9
COc1cc(CCN(C)C(=O)CCCCCCCCNc2cccc3c2C(=O)N(C2CCC(=O)NC2=O)C3=O)c(C)cc1Nc1ncc(Cl)c(Nc2ccccc2P(C)(C)=O)n1 (stereo not shown)	49.3
COc1cc(CCN(C)C(=O)CCOCCC(=O)N[C@H](C(=O)N2C[C@H](O)C[C@H]2C(=O)N[C@@H](C)c2ccc(-c3scnc3C)cc2)C(C)(C)C)c(C)cc1Nc1ncc(Cl)c(Nc2ccccc2P(C)(C)=O)n1	43.7

###

Molecular target: EML4-ALK (Homo sapiens)
Construct: endogenous in cells; host or cells: H3122 (NSCLC), single-cell clone after CRISPR knock-in of HiBit; the other entry of the earlier key: EML4 (Q9HC35, Echinoderm microtubule-associated protein-like 4)
Assay: EML4-ALK HiBit degradation assay in CRISPR-tagged H3122 cells (Nano-Glo HiBit Lytic Detection)
Assay type: cell-based
Settings: Table 1, first DC50 column; H3122 EML4-ALK-HiBit, 16 hours; read-out: Degradation DC50
recorded-endpoint: DC50 (nM)

COc1cc(CCN(C)C(=O)CCOCCOCCNc2cccc3c2C(=O)N(C2CCC(=O)NC2=O)C3=O)c(C)cc1Nc1ncc(Cl)c(Nc2ccccc2S(=O)(=O)C(C)C)n1 (stereo not drawn)	100
COc1cc(CCNCCCCCCCC(=O)N[C@H](C(=O)N2C[C@H](O)C[C@H]2C(=O)N[C@@H](C)c2ccc(-c3scnc3C)cc2)C(C)(C)C)c(C)cc1Nc1ncc(Cl)c(Nc2ccccc2S(=O)(=O)C(C)C)n1	390
CC[C@@H](NC(=O)C1CC(NC(=O)CCCCCCC(=O)N(C)CCc2cc(OC)c(Nc3ncc(Cl)c(Nc4ccccc4S(=O)(=O)C(C)C)n3)cc2C)CN1C(=O)[C@@H](NC(=O)[C@H](C)NC)C(C)(C)C)c1ccccc1 (stereo partly drawn)	624

A = COc1cc(CCN(C)C(=O)CCOCCC(=O)N[C@H](C(=O)N2C[C@H](O)C[C@H]2C(=O)N[C@@H](C)c2ccc(-c3scnc3C)cc2)C(C)(C)C)c(C)cc1Nc1ncc(Cl)c(Nc2ccccc2S(=O)(=O)C(C)C)n1
B = COc1cc(CCNCCCCCSC(C)(C)[C@H](NC(C)=O)C(=O)N2C[C@H](O)C[C@H]2C(=O)N[C@@H](C)c2ccc(-c3scnc3C)cc2)c(C)cc1Nc1ncc(Cl)c(Nc2ccccc2S(=O)(=O)C(C)C)n1
Form field 'greater DC50' accepts A or B ; which applies? Write down the label of the entry you select. B
(B: 961 nM, A: 214 nM)

###

Target: EML4-ALK (Homo sapiens, UniProt Q9UM73)
Construct: endogenous in cells; host or cells: H3122 (NSCLC), single-cell clone after CRISPR knock-in of HiBit; the other entry of the earlier key: EML4 (Q9HC35, Echinoderm microtubule-associated protein-like 4)
Assay: EML4-ALK HiBit degradation assay in CRISPR-tagged H3122 cells (Nano-Glo HiBit Lytic Detection)
Type: cell-based
Settings: NCI-H3122, Table 1, first Dmax column; H3122 EML4-ALK-HiBit, 16 hours; read-out: Degradation Dmax
recorded-endpoint: Dmax (%)

The cases that follow already have their Dmax on record.
COc1cc(CCN(C)C(=O)CCOCCOCCNC(=O)COc2cccc3c2C(=O)N(C2CCC(=O)NC2=O)C3=O)c(C)cc1Nc1ncc(Cl)c(Nc2ccccc2S(=O)(=O)C(C)C)n1 (stereo not shown)	44.3
COc1cc(CCNCCCCCSC(C)(C)[C@H](NC(C)=O)C(=O)N2C[C@H](O)C[C@H]2C(=O)N[C@@H](C)c2ccc(-c3scnc3C)cc2)c(C)cc1Nc1ncc(Cl)c(Nc2ccccc2S(=O)(=O)C(C)C)n1	77.2
COc1cc(CCN(C)C(=O)CCCCCCCCNC(=O)COc2cccc3c2C(=O)N(C2CCC(=O)NC2=O)C3=O)c(C)cc1Nc1ncc(Cl)c(Nc2ccccc2S(=O)(=O)C(C)C)n1 (stereo not shown)	50.8

I = COc1cc(CCN(C)C(=O)CCCC#Cc2cccc3c2C(=O)N(C2CCC(=O)NC2=O)C3=O)c(C)cc1Nc1ncc(Cl)c(Nc2ccccc2S(=O)(=O)C(C)C)n1 (stereo not shown)
II = COc1cc(CCN(C)C(=O)CCCCCNc2cccc3c2C(=O)N(C2CCC(=O)NC2=O)C3=O)c(C)cc1Nc1ncc(Cl)c(Nc2ccccc2S(=O)(=O)C(C)C)n1 (stereo not shown)
III = COc1cc(CCNCCOCCOCCOCCC(=O)N[C@H](C(=O)N2C[C@H](O)C[C@H]2C(=O)N[C@@H](C)c2ccc(-c3scnc3C)cc2)C(C)(C)C)c(C)cc1Nc1ncc(Cl)c(Nc2ccccc2S(=O)(=O)C(C)C)n1
Thanks in advance: please rank these 3 entries by Dmax, highest to lowest. Use the labels to give the requested order. III, I, II
(III: 81.9%, I: 54.1%, II: 24.1%)

###

Target: EML4-ALK (Homo sapiens, UniProt Q9UM73)
Construct: endogenous in cells; host or cells: H3122 (NSCLC), single-cell clone after CRISPR knock-in of HiBit; the other entry of the earlier key: EML4 (Q9HC35, Echinoderm microtubule-associated protein-like 4)
Assay: EML4-ALK HiBit degradation assay in CRISPR-tagged H3122 cells (Nano-Glo HiBit Lytic Detection)
Assay type: cell-based
Settings: NCI-H3122, Table 2; average Dmax; read-out: Degradation Avg. Dmax
recorded-endpoint: Dmax (%)

Study these solved cases before continuing.
CC[C@@H](NC(=O)[C@@H]1C[C@H](NC(=O)CCCCCCC(=O)N(C)CCc2cc(OC)c(Nc3ncc(Cl)c(Nc4ccccc4P(C)(C)=O)n3)cc2C)CN1C(=O)[C@@H](NC(=O)[C@H](C)NC)C(C)(C)C)c1ccccc1	47.1
COc1cc(CCN(C)C(=O)CCCCCC#Cc2cccc3c2C(=O)N(C2CCC(=O)NC2=O)C3=O)c(C)cc1Nc1ncc(Cl)c(Nc2ccccc2P(C)(C)=O)n1 (stereo not drawn)	27.8

I = COc1cc(CCN(C)C(=O)CCOCCOCCOCC#Cc2cccc3c2C(=O)N(C2CCC(=O)NC2=O)C3=O)c(C)cc1Nc1ncc(Cl)c(Nc2ccccc2P(C)(C)=O)n1 (stereo not drawn)
II = COc1cc(CCN(C)C(=O)CCOCCC(=O)N[C@H](C(=O)N2C[C@H](O)C[C@H]2C(=O)N[C@@H](C)c2ccc(-c3scnc3C)cc2)C(C)(C)C)c(C)cc1Nc1ncc(Cl)c(Nc2ccccc2P(C)(C)=O)n1
Hi! Which is lower in terms of Dmax, the first one I or the second one II ? Give the label of your selection. I
(I: 27.3%, II: 47.3%)
